Ref: PubChem BioAssay AID1159580

assay: chemical genetic growth profiling, strain panel (AID 1159580);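 also: tested at 20 µM; growth read once vehicle control cultures reached saturation at 30 °C; 1 = growth at the plate median or of vehicle wells; lower values mean less growth of the strain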; conditions: S. cerevisiae deletion strains, growth OD, locus YBR229C, strain ROT2, stronger effect = lower value
The whole screen tested about 5,500 compounds, of which about 2,000 (36%) were called active. Inconclusive results (about 18%) are left out. Some of the results follow.
endpoint: normalized growth
The reply should be a number, written without any unit.

compound: CCC1(O)CC(OC2CC(N(C)C)C(OC3CC(O)C(OC4CCC(=O)C(C)O4)C(C)O3)C(C)O2)c2c(cc3c(c2O)C(=O)c2c(O)cccc2C3=O)C1C(=O)OC (centres undefined)
normalized growth: 1

(Q) Note down normalized growth recorded for `CC[C@H]1OC(=O)[C@H](C)[C@@H](O[C@H]2C[C@@](C)(OC)[C@@H](O)[C@H](C)O2)[C@H](C)[C@@H](O[C@@H]2O[C@H](C)C[C@H](N(C)C)[C@H]2O)[C@](C)(OC)C[C@@H](C)C(=O)[C@H](C)[C@@H](O)[C@]1(C)O`
(A) 0.989

(Q) Note down normalized growth recorded for COc1ccc(OC)c(C(O)CNC(=O)CN)c1 (centres undefined)
(A) 0.961

(Q) Note down normalized growth recorded for `O=C(O)/C=C/c1ccc(O)c(O)c1`
(A) 1.01
